Data origin, for the record: patent US20240025919A1

Biological target: UniProtKB P01116
Test: KRAS WT Biochemical Assay, BODIPY-GDP Exchange TR-FRET (Example 502; 0.06 nM KRAS WT, 15 nM GDP, 300 nM SOS1, 120-minute incubation)
Conditions: read-out: KRas HTRF IC50
pIC50: −log10 of the molar value.
Categories are assigned from the measured pIC50 using these intervals: lower: < 7; middle: ≥ 7 and < 8; upper: ≥ 8

Check out these entries, answers already filled in.
// query Would you mind sorting `Cc1c(F)c(N)cc(-c2nc3c4c(nc(OCC5(CN6C[C@@H]7C[C@H]6CO7)CC5)nc4c2F)N2C[C@H]4CC[C@H](N4)[C@H]2[C@H](C)O3)c1C(F)(F)F` into the appropriate category?
// result upper

// query Same again, this time with `Cc1cc(N)cc(-c2nc3c4c(nc(OC[C@]56CCN5CC(F)(F)C6)nc4c2F)N2C[C@H]4CC[C@H](N4)[C@H]2[C@H](C)O3)c1C(F)(F)F`
// result upper

// query Note, next up: `Cc1c(F)c(N)cc(-c2nc3c4c(nc(OC[C@@]56CCCN5C[C@H](F)C6)nc4c2F)N2C[C@H]4CC[C@H](N4)[C@H]2[C@H](C)O3)c1C(F)(F)F`
// result upper

// query Same lookup for Cc1c(F)c(N)cc(-c2nc3c4c(nc(OC[C@]5(CN6C[C@H]7C[C@@H]6CO7)CC5(F)F)nc4c2F)N2C[C@H]4CC[C@H](N4)[C@H]2[C@H](C)O3)c1C(F)(F)F (single isomer, unassigned) [166 a] , please.
// result upper

---
// query The entry to classify is `C[C@@H]1Oc2nc(-c3cccc4sc(N)nc34)c(F)c3nc(OC[C@@]45CCCN4C[C@H](F)C5)nc(c23)N2C[C@H]3CC[C@H](N3)[C@@H]12` ; which class holds it?
// result lower

// query Same question, `Cc1c(F)c(N)cc(-c2nc3c4c(nc(OC[C@@H](F)CN5CC6(COC6)C5)nc4c2F)N2C[C@H]4CC[C@H](N4)[C@H]2[C@H](C)O3)c1C(F)(F)F` this time
// result lower

// query Also check Cc1c(F)c(N)cc(-c2nc3c4c(nc(OC[C@@]56CCCN5CC5(CC5(F)F)C6)nc4c2F)N2C[C@H]4CC[C@H](N4)[C@H]2[C@H](C)O3)c1C(F)(F)F (some centres unmarked)
// result upper
